molecular target: Glutamate NMDA receptor; Grin1/Grin2a (Rattus norvegicus) (UniProt P35439+Q00959); experiment: Potentiation of rat recombinant GluN1/GluN2A expressed in Xenopus laevis oocytes assessed as increase in glutamate/glycine-induced current response at 30 uM by two-electrode voltage clamp technique relative to control; format: cell-based
OBSERVATION_TYPE: Activity (%)

- MOLECULE: "CNC(=O)c1ccc(C2C(C(=O)c3cccnc3)=C(O)C(=O)N2CCc2c[nH]c3ccccc23)cc1 (centres undefined)"
  UNIT_DESCRIPTOR: "%"
  REPORTED_RESULT: 96
- MOLECULE: "C=CC(=O)OC1=C(C(C)=O)C(c2ccc(C(=O)OC)cc2)N(CCc2c(C)[nH]c3ccccc23)C1=O (centres undefined)"
  UNIT_DESCRIPTOR: "%"
  REPORTED_RESULT: 106
- MOLECULE: "COC(=O)c1ccc(C2C(C(=O)c3cccc(O)c3)=C(O)C(=O)N2CCc2c[nH]c3ccccc23)cc1 (centres undefined)"
  UNIT_DESCRIPTOR: "%"
  REPORTED_RESULT: 89
- MOLECULE: "COC(=O)c1ccc(C2C(C(=O)c3ccncc3)=C(O)C(=O)N2Cc2c[nH]c3ccccc23)cc1 (centres undefined)"
  UNIT_DESCRIPTOR: "%"
  REPORTED_RESULT: 106
- MOLECULE: "NC(=O)c1ccc(C2C(C(=O)c3cccnc3)=C(O)C(=O)N2CCc2c[nH]c3ccccc23)cc1 (centres undefined)"
  UNIT_DESCRIPTOR: "%"
  REPORTED_RESULT: 101
- MOLECULE: "COC(=O)c1ccc(C2C(C(=O)c3cccnc3)=C(O)C(=O)N2CCc2c[nH]c3cccc(C)c23)cc1 (centres undefined)"
  UNIT_DESCRIPTOR: "%"
  REPORTED_RESULT: 112
- MOLECULE: "COC(=O)c1ccc(C2C(C(=O)c3cccc(C)c3)=C(O)C(=O)N2CCc2c[nH]c3ccccc23)cc1 (centres undefined)"
  UNIT_DESCRIPTOR: "%"
  REPORTED_RESULT: 97
- MOLECULE: "CCC(=O)C1=C(O)C(=O)N(CCc2c[nH]c3ccccc23)C1c1ccc(C(=O)OC)cc1 (centres undefined)"
  UNIT_DESCRIPTOR: "%"
  REPORTED_RESULT: 85
- MOLECULE: "COC(=O)c1ccc(C2C(C(=O)c3cccnc3)=C(O)C(=O)N2CCc2c[nH]c3ccc(OC)cc23)cc1 (centres undefined)"
  UNIT_DESCRIPTOR: "%"
  REPORTED_RESULT: 112
- MOLECULE: "COC(=O)c1ccc(C2C(C(C)=O)=C(O)C(=O)N2CCc2c[nH]c3c(C)cccc23)cc1 (centres undefined)"
  UNIT_DESCRIPTOR: "%"
  REPORTED_RESULT: 98
- MOLECULE: "CC(=O)C1=C(O)C(=O)N(CCc2c[nH]c3ccccc23)C1c1ccc(C(=O)OC(C)C)cc1 (centres undefined)"
  UNIT_DESCRIPTOR: "%"
  REPORTED_RESULT: 96
- MOLECULE: "COC(=O)c1ccc(C2C(C(C)=O)=C(O)C(=O)N2CCc2c[nH]c3ccccc23)c(Cl)c1 (centres undefined)"
  UNIT_DESCRIPTOR: "%"
  REPORTED_RESULT: 103
- MOLECULE: "COC(=O)c1ccc(C2C(C(=O)c3cccnc3)=C(O)C(=O)N2CCc2c[nH]c3cc(OC)ccc23)cc1 (centres undefined)"
  UNIT_DESCRIPTOR: "%"
  REPORTED_RESULT: 84
- MOLECULE: "COC(=O)c1ccc(C2C(C(=O)c3cccnc3)=C(O)C(=O)N2CCc2c[nH]c3ccccc23)cc1 (centres undefined)"
  UNIT_DESCRIPTOR: "%"
  REPORTED_RESULT: 97
- MOLECULE: "COC(=O)c1ccc(C2C(C(C)=O)=C(O)C(=O)N2CCc2c[nH]c3ccccc23)c(F)c1 (centres undefined)"
  UNIT_DESCRIPTOR: "%"
  REPORTED_RESULT: 93
- MOLECULE: "COC(=O)c1ccc(C2C(C(C)=O)=C(O)C(=O)N2CCc2c[nH]c3ccccc23)cc1O (centres undefined)"
  UNIT_DESCRIPTOR: "%"
  REPORTED_RESULT: 81
- MOLECULE: "CCOC(=O)c1ccc(C2C(C(C)=O)=C(O)C(=O)N2CCc2c[nH]c3ccccc23)c(O)c1 (centres undefined)"
  UNIT_DESCRIPTOR: "%"
  REPORTED_RESULT: 110
- MOLECULE: "COC(=O)c1ccc(C2C(C(C)=O)=C(O)C(=O)N2CCc2c[nH]c3ccccc23)cc1Cl (centres undefined)"
  UNIT_DESCRIPTOR: "%"
  REPORTED_RESULT: 88
- MOLECULE: "COC(=O)c1ccc(C2C(C(=O)c3ccncc3)=C(O)C(=O)N2CCc2cccc3ccccc23)cc1 (centres undefined)"
  UNIT_DESCRIPTOR: "%"
  REPORTED_RESULT: 44
- MOLECULE: "COC(=O)c1ccc(C2C(C(=O)C(C)C)=C(O)C(=O)N2CCc2c[nH]c3ccccc23)cc1 (centres undefined)"
  UNIT_DESCRIPTOR: "%"
  REPORTED_RESULT: 95
- MOLECULE: "COC(=O)c1ccc(C2C(C(=O)c3ccccc3)=C(O)C(=O)N2CCc2c[nH]c3ccccc23)cc1 (centres undefined)"
  UNIT_DESCRIPTOR: "%"
  REPORTED_RESULT: 116
- MOLECULE: "COC(=O)c1ccc(C2C(C(=O)C(C)(C)C)=C(O)C(=O)N2CCc2c[nH]c3ccccc23)cc1 (centres undefined)"
  UNIT_DESCRIPTOR: "%"
  REPORTED_RESULT: 87
- MOLECULE: "CCOC(=O)c1ccc(C2C(C(=O)c3ccncc3)=C(O)C(=O)N2CCc2c[nH]c3ccccc23)cc1 (centres undefined)"
  UNIT_DESCRIPTOR: "%"
  REPORTED_RESULT: 109
- MOLECULE: "COC(=O)c1ccc(C2C(C(=O)c3cccnc3)=C(O)C(=O)N2CCc2c[nH]c3c(Cl)cccc23)cc1 (centres undefined)"
  UNIT_DESCRIPTOR: "%"
  REPORTED_RESULT: 90
- MOLECULE: "COC(=O)c1ccc(C2C(C(=O)c3cccnc3)=C(O)C(=O)N2CCc2c(C)[nH]c3ccccc23)cc1 (centres undefined)"
  UNIT_DESCRIPTOR: "%"
  REPORTED_RESULT: 82
- MOLECULE: "COC(=O)c1ccc(C2C(C(=O)c3ccncc3)=C(O)C(=O)N2CCc2c[nH]cn2)cc1 (centres undefined)"
  UNIT_DESCRIPTOR: "%"
  REPORTED_RESULT: 101
- MOLECULE: "CNS(=O)(=O)c1ccc(C2C(C(=O)c3cccnc3)=C(O)C(=O)N2CCc2c[nH]c3ccccc23)cc1 (centres undefined)"
  UNIT_DESCRIPTOR: "%"
  REPORTED_RESULT: 74
- MOLECULE: "COC(=O)c1ccc(C2C(C(C)=O)=C(OC)C(=O)N2CCc2c[nH]c3ccccc23)cc1 (centres undefined)"
  UNIT_DESCRIPTOR: "%"
  REPORTED_RESULT: 109
- MOLECULE: "COC(=O)c1ccc(C2C(C(=O)c3ccncc3)=C(O)C(=O)N2CCc2c[nH]c3ccccc23)cc1 (centres undefined)"
  UNIT_DESCRIPTOR: "%"
  REPORTED_RESULT: 92
- MOLECULE: "COC(=O)c1ccc(C2C(C(C)=O)=C(O)C(=O)N2CCc2c[nH]c3ccccc23)c(O)c1 (centres undefined)"
  UNIT_DESCRIPTOR: "%"
  REPORTED_RESULT: 107
- MOLECULE: "COC(=O)c1ccc(C2C(C(=O)c3ccccn3)=C(O)C(=O)N2CCc2c[nH]c3ccccc23)cc1 (centres undefined)"
  UNIT_DESCRIPTOR: "%"
  REPORTED_RESULT: 106
- MOLECULE: "CCCC(=O)OC1=C(C(C)=O)C(c2ccc(C(=O)OC)cc2)N(CCc2c(C)[nH]c3ccccc23)C1=O (centres undefined)"
  UNIT_DESCRIPTOR: "%"
  REPORTED_RESULT: 112
- MOLECULE: "COC(=O)c1ccc(C2C(C(C)=O)=C(O)C(=O)N2CCc2c(C)[nH]c3ccccc23)cc1 (racemic)"
  UNIT_DESCRIPTOR: "%"
  REPORTED_RESULT: 97
- MOLECULE: "COC(=O)c1ccc(C2C(C(=O)c3cccnc3)=C(O)C(=O)N2CCCc2c[nH]c3ccccc23)cc1 (centres undefined)"
  UNIT_DESCRIPTOR: "%"
  REPORTED_RESULT: 96
